# Test system: KM12
# testProtocol: NCI tumour cell line growth inhibition, 48 h
Activity calls are given as the source filed them. Cut-off read from the data, not from the text of the source: active = GI50 up to about 1.1 µM and inactive = higher.
For each of the molecules below, state its GI50.

Exercise: Given the molecule S=C(N/N=C(/c1ccccc1)c1ccccn1)Nc1ccccc1Cl , what is its reported GI50?
Solution: 0.0649 µM (active)

Exercise: Given the molecule O=C(c1cccc(C(=O)c2ccc3c4c(cccc24)C(=O)N(c2ccccc2)C3=O)c1)c1ccc2c3c(cccc13)C(=O)N(c1ccccc1)C2=O , what is its reported GI50?
Solution: > 100 µM (inactive)

Exercise: Given the molecule COc1ccc(C2SCC(=O)N2NC(=O)C(C)Oc2ccc(Cl)cc2Cl)cc1 (stereo unspecified) , what is its reported GI50?
Solution: 55.1 µM (inactive)

Exercise: Given the molecule Cc1csc2c(P(=O)(OC(C)C)OC(C)C)c(-c3ccccc3)cn12 , what is its reported GI50?
Solution: 16.8 µM (inactive)

Exercise: Given the molecule NC(=O)c1csc(C2(O)COC(CO)C2O)n1 (stereo unspecified) , what is its reported GI50?
Solution: > 100 µM (inactive)

Exercise: Given the molecule CCCCCCc1cc2cc(C(=O)Nc3ccccc3F)c(=N)oc2cc1O , what is its reported GI50?
Solution: 4.01 µM (inactive)

Exercise: Given the molecule O=C(/C=C/c1ccc(O)c(O)c1)OCCc1ccc2ccccc2c1 , what is its reported GI50?
Solution: 3.64 µM (inactive)

Exercise: Given the molecule CC(C)(C)NC1=NC(C(F)(F)F)(C(F)(F)F)NC(=O)N1 , what is its reported GI50?
Solution: 68.4 µM (inactive)

Exercise: Given the molecule Cc1cc(=O)n2nc(CSc3nnc(N)s3)sc2n1 , what is its reported GI50?
Solution: > 100 µM (inactive)

Exercise: Given the molecule COC(=O)[C@@H]1Cc2cc(O)c(O)cc2C2(CCN(C)CC2)O1 , what is its reported GI50?
Solution: > 10 µM (inactive)

Exercise: Given the molecule COC(=O)/C=C/C1(O)C=CC(=O)C=C1 , what is its reported GI50?
Solution: 2.32 µM (inactive)

Exercise: Given the molecule Cc1c2c(C(N)=O)nccc2c(C)c2c1c1ccccc1n2Cc1ccccc1 , what is its reported GI50?
Solution: 21.6 µM (inactive)

Exercise: Given the molecule O=C(OC[C@H]1C[C@H]2C(=O)OCCC[C@H]2O1)c1ccccc1 , what is its reported GI50?
Solution: > 100 µM (inactive)

Exercise: Given the molecule CCOC(=O)Cc1nc2c(O)ncnc2n1C1OC(COC(C)=O)C(OC(C)=O)C1OC(C)=O (stereo unspecified) , what is its reported GI50?
Solution: > 100 µM (inactive)

Exercise: Given the molecule COC(=O)c1sc2c(c1C(=O)OC)/C(=N/C(C)(C)C)S/C2=N\C(C)(C)C , what is its reported GI50?
Solution: 16.3 µM (inactive)

Exercise: Given the molecule COc1cc2c(cc1OC)C13CCN4CC5=CCOC6CC(=O)N2C1C6C5CC43O (stereo unspecified) , what is its reported GI50?
Solution: > 100 µM (inactive)

Exercise: Given the molecule O=C(O)c1cc2ccccc2c2c1C(=O)c1ccccc1-2 , what is its reported GI50?
Solution: > 100 µM (inactive)

Exercise: Given the molecule O=[N+]([O-])c1ccc(Oc2c(Cl)cc(S(=O)(=O)N/C(=N\O)Nc3ccc(Cl)cc3)cc2Cl)cc1 , what is its reported GI50?
Solution: 13.5 µM (inactive)

Exercise: Given the molecule O=C(NCc1ccccc1)C1C(=O)C(=O)N(Cc2ccccc2)C1=O (stereo unspecified) , what is its reported GI50?
Solution: > 100 µM (inactive)

Exercise: Given the molecule C=C(C(=O)O[C@H]1C(=O)C2=C(C)CCC3C(=C)C(=O)O[C@@H]3C2[C@]1(C)O)C1CC[C@]2(C)CCCC(=C)[C@H]2C1 (stereo partly specified) , what is its reported GI50?
Solution: 6.85 µM (inactive)

Exercise: Given the molecule CC1OC(OC2CC(O)(C(=O)CO)Cc3c(O)c4c(c(O)c32)C(=O)c2ccccc2C4=O)CC(N)C1O (stereo unspecified) , what is its reported GI50?
Solution: 0.0168 µM (active)

* * *

# System: HCT-116
# testProtocol: NCI tumour cell line growth inhibition, 48 h
The source made the active and inactive calls. Cut-off read from the data, not from the text of the source: active = GI50 up to about 1.1 µM and inactive = higher.
Pick from active, inactive when you respond.

Exercise: # fetch the recorded call for S=C1CSc2c(ccc3ccccc23)N1 here
Solution: inactive

Exercise: # fetch the recorded call for CC(=O)O[C@H]1CC[C@@]2(C)C(=CC[C@@H]3[C@@H]2CC[C@]2(C)c4c(C)nn(-c5ccccc5)c4C[C@@H]32)C1 here
Solution: inactive

Exercise: # fetch the recorded call for CC(C)C1=C(Cc2ccccc2)C(=O)O/C1=C\c1cc(Cl)c(O)c(Cl)c1 here
Solution: inactive

Exercise: # fetch the recorded call for O=[N+]([O-])c1ccc(C2N3CCCCC3[C@H]3CCCCN23)cc1 (stereo not given in full) here
Solution: inactive

Exercise: # fetch the recorded call for CC[C@@H]1NC(C(=O)OC)Cc2c1[nH]c1ccccc21 (stereo not given in full) here
Solution: inactive

Exercise: # fetch the recorded call for Cc1cnc(-c2ccccc2)o1 here
Solution: inactive

Exercise: # fetch the recorded call for CC(=O)NC1C(O)CC(OCCCSCCN)(C(=O)O)OC1C(O)C(O)CO (stereo not given) here
Solution: inactive

Exercise: # fetch the recorded call for OC1(c2ccc(Cl)cc2)c2ccc(CN3CCCC3)cc2C2=NCCN21 (stereo not given) here
Solution: inactive

Exercise: # fetch the recorded call for C/C(O)=C1\CC2CN3CCc4c([nH]c5ccccc45)C3CC2CC1=O (stereo not given) here
Solution: inactive

Exercise: # fetch the recorded call for COc1ccc2oc(=N)c(C(=O)Nc3ccccc3)cc2c1 here
Solution: inactive

Exercise: # fetch the recorded call for CCCCC1Cc2cc(OC)ccc2-c2n1c1cc(OC)ccc1[n+]2C.CCCCC1Cc2cc(OC)ccc2-c2n1c1ccc(OC)cc1[n+]2C (stereo not given) here
Solution: inactive

Exercise: # fetch the recorded call for COc1ccc(CNc2cc(=O)n(C)c(=O)[nH]2)cc1 here
Solution: inactive

Exercise: # fetch the recorded call for COC(=O)C(c1n[nH]c2ccccc12)C(C(=O)OC)c1n[nH]c2ccccc12 (stereo not given) here
Solution: inactive

Exercise: # fetch the recorded call for S=C(NCCc1ccccn1)N/N=C/c1ccccn1 here
Solution: active

Exercise: # fetch the recorded call for CCC(C)C1NC(=O)CNC(=O)C2Cc3c([nH]c4cc(O)ccc34)[S+]([O-])CC(NC(=O)CNC1=O)C(=O)NC(CC(=O)O)C(=O)N1CC(O)CC1C(=O)NC(C(C)C(O)CO)C(=O)N2 (stereo not given) here
Solution: inactive

Exercise: # fetch the recorded call for CSC1=N/C(=C\c2ccc(Cl)cc2)C(=O)N1CN1CCCCC1 here
Solution: inactive

Exercise: # fetch the recorded call for Cc1[nH]c2ccccc2c1C1Cc2ccccc2N1C(=O)C#Cc1ccc([N+](=O)[O-])cc1 (stereo not given) here
Solution: inactive

Exercise: # fetch the recorded call for N#Cc1nc(CCN2C(=O)c3ccccc3C2=O)oc1N here
Solution: inactive

Exercise: # fetch the recorded call for C=C(CCOC)CCC1CCCCC(CN(C)C)C1=O (stereo not given) here
Solution: inactive

Exercise: # fetch the recorded call for CN(C)CCNC(=O)c1cccc2c(NCCN(C)C)c3ccccc3nc12 here
Solution: inactive

Exercise: # fetch the recorded call for O=Cn1c2ccccc2c2ccccc21 here
Solution: inactive

Exercise: # fetch the recorded call for CC[C@@]1(CCC(=O)NCCc2c[nH]c3ccccc23)CCC(=O)N2CCc3c([nH]c4ccccc34)[C@H]21 here
Solution: inactive

Exercise: # fetch the recorded call for COc1ccc([C@H](NC(=O)c2ccccc2)[C@@H](O)C(=O)O[C@H]2C[C@@]3(O)C(OC(=O)c4ccccc4)C4[C@](C)(C(=O)[C@H](OC(C)=O)C(=C2C)C3(C)C)[C@@H](O)C[C@H]2OC[C@@]42OC(C)=O)cc1 (stereo not given in full) here
Solution: active

Exercise: # fetch the recorded call for CC1=C(C(=S)Nc2ccc(Cl)c(C(=O)OC(C)C)c2)SCCO1 here
Solution: inactive

Exercise: # fetch the recorded call for O=C(OCc1ccccc1)N1CCNCCN(C(=O)OCc2ccccc2)CCNCC1 here
Solution: inactive

Exercise: # fetch the recorded call for COc1ccccc1NCc1cccc2c(=O)c3ccc(Cl)cc3oc12 here
Solution: inactive

Exercise: # fetch the recorded call for COC(=O)CN(CC1O[C@@H]2OC(C)(C)O[C@@H]2C1NC(C)=O)C(=O)OCc1ccccc1 (stereo not given in full) here
Solution: inactive

Exercise: # fetch the recorded call for CCOC(=O)Cc1nc2c(O)ncnc2n1C1OC(COC(C)=O)C(OC(C)=O)C1OC(C)=O (stereo not given) here
Solution: inactive

Exercise: # fetch the recorded call for COC(=O)C(C(=O)C(=O)Nc1ccc(N)cc1[N+](=O)[O-])c1nc2ccc(Cl)cc2nc1O (stereo not given) here
Solution: inactive

Exercise: # fetch the recorded call for Cc1c2c(cc3c1C(=O)C(=O)C1=C3OC[C@@H]1C)C(C)(C)CCC2 here
Solution: inactive

Exercise: # fetch the recorded call for O=C(O[C@H](/C=C/c1ccccc1)P1(=O)N(Cc2ccccc2)[C@@H]2CCCC[C@H]2N1Cc1ccccc1)c1ccccc1 here
Solution: inactive

Exercise: # fetch the recorded call for COc1ccc(C2SCC(=O)N2NC(=O)C(C)Oc2ccc(Cl)cc2Cl)cc1 (stereo not given) here
Solution: inactive

Exercise: # fetch the recorded call for COc1cc(/C=C/C(=N\NC(=S)NN)c2sc(NNC(C)=O)nc2C)ccc1O here
Solution: inactive

Exercise: # fetch the recorded call for COC(=O)C(Cc1ccccc1)NC(=O)C(CCCNC(=N)N)NC(=O)OCc1ccccc1 (stereo not given) here
Solution: inactive

Exercise: # fetch the recorded call for C[C@]12CCc3nonc3C1CC[C@@H]1C2CC[C@]2(C)NC(=O)CCC12 (stereo not given in full) here
Solution: inactive

Exercise: # fetch the recorded call for Cc1ccc(S(=O)(=O)NC(=O)NCC(=O)O)cc1 here
Solution: inactive

Exercise: # fetch the recorded call for O=C(OCC(OC(=O)c1ccccc1)C1CC(C2(O)CCCCC2)C(=O)O1)c1ccccc1 (stereo not given) here
Solution: inactive

Exercise: # fetch the recorded call for COc1ccc(/C=C(\C#N)c2ccccn2)cc1OC here
Solution: inactive

Exercise: # fetch the recorded call for COc1ccc(CC(N)=O)cc1OC here
Solution: inactive

Exercise: # fetch the recorded call for CC(NC(=O)/C(=C/c1ccccc1O)NC(=O)c1ccccc1)C(=O)O (stereo not given) here
Solution: inactive
